# protocol.notes: Lymphocyte viability assay (LCV, MTT) on murine splenocytes
# Format: cell-based
# experimental.setup: mouse, splenocytes, MLR, 5.0 × 10^-4 μg/ml, MTT; read-out: % Viability (LCV)
test.readout: viability

[[record]]
molecule = "C=C1CC(OC)(C(O)C(=O)NC2OCOC3C2OC(CC(O)CO)C(C)(C)C3OC)OC(C)C1C (stereo not shown) [Mycalamide A, mycalamide A]"
test_readout = "viability"
result = "62%"


###

# protocol.notes: Lymphocyte viability assay (LCV, MTT) on murine splenocytes
# Format: cell-based
# experimental.setup: mouse, splenocytes, MLR, 5.0 × 10^-18 μg/ml, MTT; read-out: % Viability (LCV)
# Experimental: Preparation of splenocyte cell suspensions. […] The resulting supernatant was then transferred to another sterile centrifuge tube, and the cell concentration adjusted to 2×10^6 cells/ml dilution with TCM. Determination of mycalamide A toxicity. […] The absorbance at 570 nm was determined for each well using an ELISA plate reader. […]
test.readout: viability

[[record]]
compound = "C=C1CC(OC)(C(O)C(=O)NC2OCOC3C2OC(CC(O)CO)C(C)(C)C3OC)OC(C)C1C (stereo not shown) [Mycalamide A, mycalamide A]"
test_readout = "viability"
result = "> 99%"


###

# protocol.notes: T cell viability by trypan blue exclusion
# Format: cell-based, murine
# experimental.setup: t cells; 1 pM, Experiment 1, 20 hours; read-out: percentage of trypan blue-positive cells
test.readout: cytotoxicity at 20 h, 1e-06 µM

[[record]]
compound = "C=C1CC(OC)(C(O)C(=O)NC2OCOC3C2OC(CC(O)CO)C(C)(C)C3OC)OC(C)C1C (stereo not shown) [Mycalamide A, mycalamide A]"
result = "< 2%"


###

# protocol.notes: Lymphocyte viability assay (LCV, MTT) on murine splenocytes
# Assay type: cell-based
# experimental.setup: mouse, splenocytes, MLR, 5.0 × 10^-3 μg/ml, MTT; read-out: % Viability (LCV)
test.readout: viability (%)

[[record]]
molecule = "C=C1CC(OC)(C(O)C(=O)NC2OCOC3C2OC(CC(O)CO)C(C)(C)C3OC)OC(C)C1C (stereo not shown) [Mycalamide A, mycalamide A]"
numeric_result = 66


###

# protocol.notes: Lymphocyte viability assay (LCV, MTT) on human PBL
# Assay type: cell-based
# experimental.setup: human MLR, 5.0 × 10^-3 μg/ml, MTT
test.readout: viability

[[record]]
molecule = "C=C1CC(OC)(C(O)C(=O)NC2OCOC3C2OC(CC(O)CO)C(C)(C)C3OC)OC(C)C1C (stereo not shown) [Mycalamide A, mycalamide A]"
result = "46%"


###

# protocol.notes: T cell viability by trypan blue exclusion
# Format: cell-based, murine
# experimental.setup: t cells; 10 pM, Experiment 2, 20 hours; read-out: percentage of trypan blue-positive cells
test.readout: cytotoxicity at 20 h, 1e-05 µM

[[record]]
compound = "C=C1CC(OC)(C(O)C(=O)NC2OCOC3C2OC(CC(O)CO)C(C)(C)C3OC)OC(C)C1C (stereo not shown) [Mycalamide A, mycalamide A]"
result = "< 2%"


###

# protocol.notes: Lymphocyte viability assay (LCV, MTT) on murine splenocytes
# Format: cell-based
# experimental.setup: mouse, splenocytes, mitogen study, 5.0 × 10^1 μg/ml; read-out: LCV, % viability
# Procedure: Preparation of splenocyte cell suspensions. […] The resulting supernatant was then transferred to another sterile centrifuge tube, and the cell concentration adjusted to 2×10^6 cells/ml dilution with TCM. Determination of mycalamide A toxicity. […] The absorbance at 570 nm was determined for each well using an ELISA plate reader. […]
test.readout: viability (%)

[[record]]
molecule = "C=C1CC(OC)(C(O)C(=O)NC2OCOC3C2OC(CC(O)CO)C(C)(C)C3OC)OC(C)C1C (stereo not shown) [Mycalamide A, mycalamide A]"
test_readout = "viability"
numeric_result = 2


###

# protocol.notes: Lymphocyte viability assay (LCV, MTT) on murine splenocytes
# Assay type: cell-based
# experimental.setup: mouse, splenocytes, mitogen study, 5.0 × 10^-4 μg/ml; read-out: LCV, % viability
test.readout: viability

[[record]]
molecule = "C=C1CC(OC)(C(O)C(=O)NC2OCOC3C2OC(CC(O)CO)C(C)(C)C3OC)OC(C)C1C (stereo not shown) [Mycalamide A, mycalamide A]"
result = "4%"


###

# protocol.notes: Lymphocyte viability assay (LCV, MTT) on murine splenocytes
# Format: cell-based
# experimental.setup: mouse, splenocytes, mitogen study, 5.0 × 10^-5 μg/ml; read-out: LCV, % viability
test.readout: viability (%)

[[record]]
molecule = "C=C1CC(OC)(C(O)C(=O)NC2OCOC3C2OC(CC(O)CO)C(C)(C)C3OC)OC(C)C1C (stereo not shown) [Mycalamide A, mycalamide A]"
measurement_unit = "%"
numeric_result = 180


###

# protocol.notes: Lymphocyte viability assay (LCV, MTT) on human PBL
# Type: cell-based
# experimental.setup: human MLR, 5.0 × 10^-5 μg/ml, MTT
test.readout: viability

[[record]]
molecule = "C=C1CC(OC)(C(O)C(=O)NC2OCOC3C2OC(CC(O)CO)C(C)(C)C3OC)OC(C)C1C (stereo not shown) [Mycalamide A, mycalamide A]"
test_readout = "viability"
result = "111%"


###

# protocol.notes: Lymphocyte viability assay (LCV, MTT) on murine splenocytes
# Format: cell-based
# experimental.setup: mouse, splenocytes, MLR, 5.0 × 10^1 μg/ml, MTT; read-out: % Viability (LCV)
test.readout: viability

[[record]]
compound = "C=C1CC(OC)(C(O)C(=O)NC2OCOC3C2OC(CC(O)CO)C(C)(C)C3OC)OC(C)C1C (stereo not shown) [Mycalamide A, mycalamide A]"
test_readout = "viability"
result = "0%"


###

# protocol.notes: Lymphocyte viability assay (LCV, MTT) on murine splenocytes
# Format: cell-based
# experimental.setup: mouse, splenocytes, MLR, 5.0 × 10^-11 μg/ml, MTT; read-out: % Viability (LCV)
test.readout: viability

[[record]]
compound = "C=C1CC(OC)(C(O)C(=O)NC2OCOC3C2OC(CC(O)CO)C(C)(C)C3OC)OC(C)C1C (stereo not shown) [Mycalamide A, mycalamide A]"
test_readout = "viability"
result = "> 99%"


###

# protocol.notes: Lymphocyte viability assay (LCV, MTT) on murine splenocytes
# Format: cell-based
# experimental.setup: mouse, splenocytes, MLR, 5.0 × 10^-16 μg/ml, MTT; read-out: % Viability (LCV)
test.readout: viability

[[record]]
compound = "C=C1CC(OC)(C(O)C(=O)NC2OCOC3C2OC(CC(O)CO)C(C)(C)C3OC)OC(C)C1C (stereo not shown) [Mycalamide A, mycalamide A]"
test_readout = "viability"
result = "> 99%"


###

# protocol.notes: Lymphocyte viability assay (LCV, MTT) on murine splenocytes
# Format: cell-based
# experimental.setup: mouse, splenocytes, MLR, 5.0 × 10^-17 μg/ml, MTT; read-out: % Viability (LCV)
# Procedure: Preparation of splenocyte cell suspensions. […] The resulting supernatant was then transferred to another sterile centrifuge tube, and the cell concentration adjusted to 2×10^6 cells/ml dilution with TCM. Determination of mycalamide A toxicity. […] The absorbance at 570 nm was determined for each well using an ELISA plate reader. […]
test.readout: viability

[[record]]
molecule = "C=C1CC(OC)(C(O)C(=O)NC2OCOC3C2OC(CC(O)CO)C(C)(C)C3OC)OC(C)C1C (stereo not shown) [Mycalamide A, mycalamide A]"
test_readout = "viability"
result = "> 99%"


###

# protocol.notes: Lymphocyte viability assay (LCV, MTT) on human PBL
# Type: cell-based
# experimental.setup: human MLR, 5.0 × 10^-6 μg/ml, MTT
test.readout: viability (%)

[[record]]
compound = "C=C1CC(OC)(C(O)C(=O)NC2OCOC3C2OC(CC(O)CO)C(C)(C)C3OC)OC(C)C1C (stereo not shown) [Mycalamide A, mycalamide A]"
test_readout = "viability"
numeric_result = 114


###

# protocol.notes: Lymphocyte viability assay (LCV, MTT) on murine splenocytes
# Type: cell-based
# experimental.setup: mouse, splenocytes, MLR, 5.0 × 10^-13 μg/ml, MTT; read-out: % Viability (LCV)
test.readout: viability

[[record]]
compound = "C=C1CC(OC)(C(O)C(=O)NC2OCOC3C2OC(CC(O)CO)C(C)(C)C3OC)OC(C)C1C (stereo not shown) [Mycalamide A, mycalamide A]"
result = "> 99%"


###

# protocol.notes: Lymphocyte viability assay (LCV, MTT) on murine splenocytes
# Format: cell-based
# experimental.setup: mouse, splenocytes, MLR, 5.0 × 10^-8 μg/ml, MTT; read-out: % Viability (LCV)
test.readout: viability

[[record]]
molecule = "C=C1CC(OC)(C(O)C(=O)NC2OCOC3C2OC(CC(O)CO)C(C)(C)C3OC)OC(C)C1C (stereo not shown) [Mycalamide A, mycalamide A]"
test_readout = "viability"
result = "100%"


###

# protocol.notes: Lymphocyte viability assay (LCV, MTT) on murine splenocytes
# Type: cell-based
# experimental.setup: mouse, splenocytes, MLR, 5.0 × 10^0 μg/ml, MTT; read-out: % Viability (LCV)
test.readout: viability (%)

[[record]]
compound = "C=C1CC(OC)(C(O)C(=O)NC2OCOC3C2OC(CC(O)CO)C(C)(C)C3OC)OC(C)C1C (stereo not shown) [Mycalamide A, mycalamide A]"
test_readout = "viability"
measurement_unit = "%"
numeric_result = 0


Source: patent US5298523A
